assay: basal HepG2 mitochondrial membrane potential changes, profiling panel, cell-based, JC-1 fluorescence, 24 h, 100 nL compound (AID 1167); details: higher = more signal; note: test concentration not given here
Bucketed by reported z-score, buckets being low (below 0.1), intermediate (0.1 to below 0.7), high (0.7 or more)

- COMPOUND: "C=C(COC)/C(=C/C[C@@H](OC(C)=O)c1cccc(OCCO)c1)c1cc(C(=O)OC)ccc1OC"
  CLASS_NAME: "high"
- COMPOUND: "CN(C)C(=O)[C@@]1(Cc2ccccc2N=[N+]=[N-])N=C(c2ccc(OCCCO)cc2)O[C@H]1c1ccccc1CN=[N+]=[N-]"
  CLASS_NAME: "high"
- COMPOUND: "COc1ccc([Si](C)(C)[C@H]2[C@H](CC(=O)N(CCO)Cc3ccccc3)O[C@@]3(C(=O)N(C)c4ccccc43)[C@@H]2C)cc1"
  CLASS_NAME: "low"
- COMPOUND: "C=CCC(OC(C)=O)[C@@H]1[C@@H](N(Cc2ccc(-c3ccccc3)cc2)C(=O)c2ccc(C)cc2)c2cc(OCCCO)ccc2N1C(=O)c1ccc(-c2ccccc2)cc1 (some centres undefined)"
  CLASS_NAME: "high"
- COMPOUND: "COc1ccc([Si](C)(C)[C@@H]2[C@@H](CC(=O)N(CCO)Cc3ccccc3)O[C@]3(C(=O)N(Cc4cccc(N5CCC5=O)c4)c4ccccc43)[C@H]2C)cc1"
  CLASS_NAME: "high"
- COMPOUND: "CCCC[C@@H]1C[C@H]1[C@@H](NC(=O)c1ccccc1)c1ccccc1C(F)(F)F"
  CLASS_NAME: "low"
- COMPOUND: "C=CCC(OC(C)=O)[C@@H]1[C@@H](N(Cc2cc3ccccc3o2)C(=O)Cc2ccc(F)cc2)c2cc(OCCCO)ccc2N1C(=O)c1ccc(-c2ccccc2)cc1 (some centres undefined)"
  CLASS_NAME: "high"
- COMPOUND: "COCCCNC(=O)[C@@]1(c2ccc([N+](=O)[O-])cc2)CC(=O)N(C2CCCCC2)[C@@H]1c1ccc(CO)cc1"
  CLASS_NAME: "intermediate"
- COMPOUND: "C/C(=N\\O)C(=O)NCCCCCNC(=O)OCc1ccccc1"
  CLASS_NAME: "high"
- COMPOUND: "O=C1OCCC=C[C@H]2OC34C=CCN(Cc5ccccc5)C(=O)[C@H]3N(CCO)C(=O)[C@@H]4C12 (some centres undefined)"
  CLASS_NAME: "intermediate"
- COMPOUND: "C[N+](C)(C)CCCCNC(=O)[C@@H]1C[C@@H]2C(=O)N3CCC[C@H]3C(=O)N2[C@@H]1c1cccc(OCCO)c1"
  CLASS_NAME: "intermediate"
- COMPOUND: "CC(C)(C)OC(=O)CC[C@@]1(C(=O)NCc2ccccc2)N=C(c2ccc(OCCCO)cc2)O[C@@H]1c1ccccc1"
  CLASS_NAME: "high"
- COMPOUND: "CCOC(=O)C1=C[C@@H](c2ccccc2)N(S(=O)(=O)c2ccc(C)cc2)[C@H]1c1ccc(F)cc1"
  CLASS_NAME: "high"
- COMPOUND: "COCCOC(=O)N1C(=O)[C@@]2(c3cc(C#CCC(C(=O)OC)C(=O)OC)ccc31)[C@H](c1ccccc1OCCO)N1[C@H](c3ccccc3)[C@H](c3ccccc3)OC(=O)[C@H]1[C@@H]2C(=O)N1CCCCCCC1"
  CLASS_NAME: "intermediate"
- COMPOUND: "C=CC[C@]1(C(=O)O)N=C(c2ccc(OCCCO)cc2)O[C@H]1c1ccccc1N=[N+]=[N-]"
  CLASS_NAME: "low"
- COMPOUND: "O=C(NCC(O)CO)[C@]1(Cc2ccccc2)N=C(c2ccc(OCCCO)cc2)O[C@@H]1c1ccccc1 (some centres undefined)"
  CLASS_NAME: "low"
- COMPOUND: "CCCC=C(CCC)[C@@H](NS(=O)(=O)c1cccc(C(F)(F)F)c1)c1ccc(C(=O)OC)cc1"
  CLASS_NAME: "low"
- COMPOUND: "C=C(/C(=C/C[C@@H](OC(=O)c1ccncc1)c1ccc(CO)o1)c1cnc2ccccc2c1)C(C)C"
  CLASS_NAME: "low"
- COMPOUND: "O=C1NC(=O)C2C1C=CC(C(O)C=Cc1ccc([N+](=O)[O-])cc1)N2Nc1ccccn1 (centres undefined)"
  CLASS_NAME: "low"
- COMPOUND: "C=CC[C@@]1(C(=O)N2CCOCC2)N=C(c2ccc(OCCCO)cc2)O[C@@H]1c1ccccc1"
  CLASS_NAME: "intermediate"
- COMPOUND: "COC(=O)C[C@H]1O[C@]2(C(=O)N(C)c3ccccc32)[C@@H](C)[C@@H]1[Si](C)(C)c1ccc(OC)cc1"
  CLASS_NAME: "intermediate"
- COMPOUND: "C[C@@H]1CC[C@H]2C(=O)N3CCC[C@H]3C(=O)N2[C@H]1c1ccc(Br)cc1"
  CLASS_NAME: "intermediate"
- COMPOUND: "C=CCN1C(=O)[C@@]2(O[C@@H](CCn3cc([C@H](O)c4ccccc4)nn3)[C@H]([Si](C)(C)c3ccc(OC)cc3)[C@H]2C)c2cc(N3CCOC3=O)ccc21"
  CLASS_NAME: "high"
- COMPOUND: "NC(=O)NCC#Cc1ccc2c(c1)[C@]1(C(=O)N2)[C@H](c2ccccc2OCCO)N2[C@H](c3ccccc3)[C@H](c3ccccc3)OC(=O)[C@H]2[C@@H]1C(=O)N1CCN(c2ncccn2)CC1"
  CLASS_NAME: "low"
- COMPOUND: "CC(C)(C)OC(=O)CC[C@]1(C(=O)NCCN2CCOCC2)N=C(c2ccc(OCCCO)cc2)O[C@H]1c1ccccc1CN=[N+]=[N-]"
  CLASS_NAME: "low"
- COMPOUND: "Cc1ccc(N2C(=O)c3ccccc3[C@@H](C(=O)NCc3ccccc3)[C@@H]2c2ccc(CO)cc2)nc1"
  CLASS_NAME: "intermediate"

---

Reported z-score is given for each of the following compounds.
target: NADPH oxidase 2 (Homo sapiens) (UniProt P04839); assay: NOX2-dependent H2O2 signal modulators, primary screen, NOX inhibitor project, cell-based, HEK293-NOX2, PMA-stimulated, Amplex Red fluorescence (AID 1159); settings: 45 min, higher = more signal, called active from +8 up or from −8 down; note: test concentration not given here
Sequence (P04839 whole entry, looked up): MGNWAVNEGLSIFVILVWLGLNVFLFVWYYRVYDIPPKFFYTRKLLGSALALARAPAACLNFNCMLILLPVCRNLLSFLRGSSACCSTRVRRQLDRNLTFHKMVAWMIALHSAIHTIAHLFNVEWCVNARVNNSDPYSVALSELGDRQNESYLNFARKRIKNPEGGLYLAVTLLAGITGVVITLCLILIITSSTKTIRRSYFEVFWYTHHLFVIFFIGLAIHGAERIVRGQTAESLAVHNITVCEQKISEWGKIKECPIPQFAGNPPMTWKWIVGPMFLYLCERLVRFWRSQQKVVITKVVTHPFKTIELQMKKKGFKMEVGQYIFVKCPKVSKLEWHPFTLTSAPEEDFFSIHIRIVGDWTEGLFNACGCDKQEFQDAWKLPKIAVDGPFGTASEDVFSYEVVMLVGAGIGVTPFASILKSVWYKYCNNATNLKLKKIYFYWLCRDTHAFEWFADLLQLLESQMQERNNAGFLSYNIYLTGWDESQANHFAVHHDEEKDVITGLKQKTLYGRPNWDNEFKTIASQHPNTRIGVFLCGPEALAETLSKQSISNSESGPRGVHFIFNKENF

- COMPOUND: "C=C(C)[C@@H]1CC=C(C(O)C2C=CC3C(=O)NC(=O)C3N2Nc2ccccn2)CC1 (some centres not stated)"
  z-score: -1.02
- COMPOUND: "C=C(CCCC)C(=O)CC[C@@H](OC(=O)c1cccnc1)c1cccc(OCCO)c1"
  z-score: 0.849
- COMPOUND: "CC(=O)NCCCC[C@@H]1NC(=O)[C@H]2C[C@@H](C(=O)NCCCCCCN(C)C)[C@@H](c3ccc(O)cc3)N2C1=O"
  z-score: -0.768
- COMPOUND: "COC(=O)Cn1c(C(=O)N2CCCC2)cc2c1C[C@H]1CN(C(=O)c3ccccc3)[C@@](Cc3ccccc3)(C(=O)OC)[C@@H]21"
  z-score: 0.489
- COMPOUND: "CO[C@@H]1COC(=O)[C@@H]2CCCN2C(=O)CC=C[C@@H](C)[C@H](OC)COC(=O)[C@@H]2CCCN2C(=O)CC=C[C@H]1C"
  z-score: -0.353
- COMPOUND: "O=C(NCC(F)(F)F)[C@@H]1c2ccccc2C(=O)N(Cc2ccccc2Cl)[C@H]1c1ccc(CO)cc1"
  z-score: -0.138
- COMPOUND: "CCN1C(C)=C(C(=O)OC)[C@@H](c2ccccc2)N2C(=O)[C@@]3(C(=O)OC)O[C@@]12[C@@H]1C(=O)N(c2ccccc2)C(=O)[C@@H]13"
  z-score: -0.816

---

Listing of entries alongside the reported z-score.
target: NADPH oxidase 5 (Homo sapiens) (UniProt Q96PH1); experiment: NOX5-dependent H2O2 signal modulators, primary screen, NOX inhibitor project, cell-based, HEK293-NOX5, Amplex Red fluorescence (AID 1161); details: HEK293-NOX5, ionomycin, 45 min, higher = more signal
Sequence (Q96PH1 whole entry, looked up): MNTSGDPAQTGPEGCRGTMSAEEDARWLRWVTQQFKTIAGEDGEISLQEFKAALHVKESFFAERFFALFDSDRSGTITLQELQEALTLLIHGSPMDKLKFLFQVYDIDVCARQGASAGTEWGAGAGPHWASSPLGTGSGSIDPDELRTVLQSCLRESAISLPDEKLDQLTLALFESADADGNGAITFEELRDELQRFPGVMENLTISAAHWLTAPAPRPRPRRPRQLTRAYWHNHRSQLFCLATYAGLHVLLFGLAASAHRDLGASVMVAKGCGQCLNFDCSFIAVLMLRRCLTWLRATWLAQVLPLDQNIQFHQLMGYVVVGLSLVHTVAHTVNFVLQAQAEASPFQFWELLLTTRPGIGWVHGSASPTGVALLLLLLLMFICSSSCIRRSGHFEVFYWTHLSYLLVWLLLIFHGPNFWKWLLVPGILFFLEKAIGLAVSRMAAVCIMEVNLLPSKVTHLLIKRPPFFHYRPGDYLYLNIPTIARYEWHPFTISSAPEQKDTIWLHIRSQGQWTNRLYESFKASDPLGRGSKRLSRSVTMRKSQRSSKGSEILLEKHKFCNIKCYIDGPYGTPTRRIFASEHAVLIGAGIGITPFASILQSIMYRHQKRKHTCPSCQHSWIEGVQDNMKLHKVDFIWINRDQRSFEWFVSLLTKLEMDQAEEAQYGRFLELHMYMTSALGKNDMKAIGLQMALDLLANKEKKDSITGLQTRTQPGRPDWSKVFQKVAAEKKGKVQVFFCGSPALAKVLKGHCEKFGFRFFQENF
QUANTITY_KIND: z-score

- COMPOUND: "COc1ccc([Si](C)(C)[C@H]2[C@H](CCO)O[C@@]3(C(=O)N(Cc4ccc(N5CCCCC5=O)cc4)c4ccccc43)[C@@H]2C)cc1"
  OBSERVED_MEASUREMENT: 1.5
- COMPOUND: "CC(=O)Nc1ccc([C@H]2[C@H](C)CC[C@H]3C(=O)N4[C@@H](CC[C@@H](C)[C@@H]4c4ccc(NC(C)=O)cc4)C(=O)N32)cc1"
  OBSERVED_MEASUREMENT: 0.198
- COMPOUND: "Cc1ccc(S[C@]2(C(=O)O)CC(=O)N(Cc3cc(C(F)(F)F)cc(C(F)(F)F)c3)[C@@H]2c2ccc(CO)cc2I)cc1"
  OBSERVED_MEASUREMENT: 0.547
- COMPOUND: "CCCC/C=C/[C@H]([C@@H](O)Cc1ccccc1)N(CC#Cc1ccccc1)Cc1ccccc1Br"
  OBSERVED_MEASUREMENT: -0.622
- COMPOUND: "C=CCN1C(=O)[C@@]2(O[C@@H](CCn3cc([C@H](O)c4ccccc4)nn3)[C@H]([Si](C)(C)c3ccc(OC)cc3)[C@H]2C)c2cc(N3CCOC3=O)ccc21"
  OBSERVED_MEASUREMENT: -1.67
- COMPOUND: "C=CC[C@@]1(C(=O)N2CCOCC2)N=C(c2ccc(OCCCO)cc2)O[C@@H]1c1ccccc1"
  OBSERVED_MEASUREMENT: -1
- COMPOUND: "C=C(/C(=C/C[C@@H](OC(=O)c1ccncc1)c1ccc(CO)o1)c1cnc2ccccc2c1)C(C)C"
  OBSERVED_MEASUREMENT: -1.08
- COMPOUND: "CCCCO[C@H]1C[C@H]2C(Br)=C[C@@]1(CO)C(=O)[C@]21CO1"
  OBSERVED_MEASUREMENT: 0.178
- COMPOUND: "Cc1ccc(S[C@]2(C(=O)NCCN3CCOCC3)CC(=O)N(C3Cc4ccccc4C3)[C@@H]2c2ccc(CO)cc2I)cc1"
  OBSERVED_MEASUREMENT: 1.33
- COMPOUND: "COCCCNC(=O)[C@@H]1c2ccccc2C(=O)N(CC23CC4CC(CC(C4)C2)C3)[C@H]1c1ccc(CO)cc1"
  OBSERVED_MEASUREMENT: -4.2
- COMPOUND: "C=CCN(C(=O)C1N(c2ccc(CCO)cc2)C(=O)C2C(C(=O)O)C3C=CC21O3)C(C)(C)C (stereo not drawn)"
  OBSERVED_MEASUREMENT: 0.845
- COMPOUND: "CC(C)N1CC=CC23O[C@@H]4/C=C\\CCCOC(=O)C4[C@H]2C(=O)N(CCO)[C@@H]3C1=O (stereo partly drawn)"
  OBSERVED_MEASUREMENT: 1.84
- COMPOUND: "O=C(NCC(F)(F)F)[C@@H]1c2ccccc2C(=O)N(Cc2ccccc2Cl)[C@H]1c1ccc(CO)cc1"
  OBSERVED_MEASUREMENT: -0.0659
- COMPOUND: "CC(C)(C)OC(=O)CC[C@]1(C(=O)N2CCCCC2)N=C(c2ccc(OCCCO)cc2)O[C@H]1c1ccccc1"
  OBSERVED_MEASUREMENT: 0.541
- COMPOUND: "COC(=O)Cn1c(C(=O)N2CCCC2)cc2c1C[C@H]1CN(C(=O)c3ccccc3)[C@@](Cc3ccccc3)(C(=O)OC)[C@@H]21"
  OBSERVED_MEASUREMENT: -2.54
- COMPOUND: "[N-]=[N+]=NCc1ccccc1[C@H]1OC(c2ccc(OCCCO)cc2)=N[C@@]1(Cc1ccccc1N=[N+]=[N-])C(=O)NCc1ccccc1"
  OBSERVED_MEASUREMENT: -0.56
- COMPOUND: "Cc1cc(C)c(C(O)C2C=CC3C(=O)N(C)C(=O)C3N2N2CCCCC2)c(C)c1 (stereo not drawn)"
  OBSERVED_MEASUREMENT: -1.23
- COMPOUND: "COc1cc(CO)cc(I)c1O[C@H]1C=C(C(=O)NCCO)C[C@@H](NCCc2c[nH]c3ccccc23)[C@@H]1O"
  OBSERVED_MEASUREMENT: -0.447
- COMPOUND: "O=C1O[C@@H](c2ccccc2)[C@@H](c2ccccc2)N2[C@@H](c3ccc(OCCO)cc3)[C@]3(C(=O)Nc4ccc(C#CCCO)cc43)[C@@H](C(=O)N3CCN(c4ncccn4)CC3)[C@H]12"
  OBSERVED_MEASUREMENT: 0.589
- COMPOUND: "COc1cccc([C@@H]2[C@@H](C)CC[C@H]3C(=O)N4[C@H](c5cccc(OC)c5)[C@@H](C)CC[C@H]4C(=O)N23)c1"
  OBSERVED_MEASUREMENT: 0.796
- COMPOUND: "C[C@H]1COC(=O)[C@H](Cc2ccccc2)NC(=O)[C@@H](C)COC(=O)[C@H](Cc2ccccc2)NC1=O"
  OBSERVED_MEASUREMENT: 0.253
- COMPOUND: "CN(C)CCCC[C@@H]1NC(=O)[C@@H]2C[C@H](C(=O)NCCCCCNC(=O)CS)[C@H](c3ccc(O)cc3)N2C1=O"
  OBSERVED_MEASUREMENT: 0.398
- COMPOUND: "C[C@H]1COC(=O)[C@@H]2CCCN2C(=O)[C@@H](C)COC(=O)[C@@H]2CCCN2C1=O"
  OBSERVED_MEASUREMENT: -0.406
- COMPOUND: "O=C1C2C=CC(C(O)C(c3ccccc3)c3ccccc3)N(Nc3ccc([N+](=O)[O-])cc3)C2C(=O)N1c1ccccc1 (stereo not drawn)"
  OBSERVED_MEASUREMENT: -0.097
- COMPOUND: "C=CCC(OC(C)=O)[C@@H]1[C@@H](N(Cc2cccc3ccccc23)C(=O)c2ccc(C)cc2)c2cc(OCCCO)ccc2N1C(=O)c1ccc(-c2ccccc2)cc1 (stereo partly drawn)"
  OBSERVED_MEASUREMENT: 2.96
- COMPOUND: "CC(C)C[C@@H]1NC(=O)[C@H](CC(C)C)NC(=O)[C@@]23C(=O)N[C@@H](Cc4ccccc4)C2[C@H](C)[C@@]2(C)O[C@H]2C3/C=C/CC/C=C/CNC1=O (stereo partly drawn)"
  OBSERVED_MEASUREMENT: -1.62
- COMPOUND: "O=C1O[C@@H](c2ccccc2)[C@@H](c2ccccc2)N2[C@@H](c3ccc(O)cc3)[C@]3(C(=O)Nc4ccc(C#CC5(O)CCCCCC5)cc43)[C@@H](C(=O)Nc3nc4ccccc4s3)[C@H]12"
  OBSERVED_MEASUREMENT: 1.96
- COMPOUND: "O=C1O[C@@H](c2ccccc2)[C@@H](c2ccccc2)N2[C@@H](c3ccccc3OCCO)[C@]3(C(=O)Nc4ccc(C#CC5=CCCCC5)cc43)[C@@H](C(=O)O)[C@H]12"
  OBSERVED_MEASUREMENT: -2.75
